assay: Volume of distribution at steady state in rat at 1 mg/kg, iv; assay type: ADME, organism-based; parameters: dose 1 mg/kg, route intravenous; details: in vivo, read-out: Vdss
recorded endpoint: Vd (L/kg)
Numbers only, in L/kg.

# input compound: COCCOc1ccc(N2CCN(CCn3ncc4c3nc(N)n3nc(-c5ccco5)nc43)CC2)cc1.Cl ; wanted: its Vd
2.6

* * *

experiment: Solubility in water at pH 5.1; type: physicochemical
recorded endpoint: solubility (µM)
Give bare numbers, in µM.

# input molecule: COCCOc1ccc(N2CCN(CCn3ncc4c3nc(N)n3nc(-c5ccco5)nc43)CC2)cc1 [PRELADENANT] ; wanted: its solubility
0.2

* * *

test system: Rattus norvegicus; assay: Inhibition of haloperidol-induced catalepsy in rat at 1 mg/kg, po after 1 hr; type: functional
The label depends only on inhibition in vivo at 1 mg/kg: T if it is at least 40%, F if it is smaller.

> print(dat)
                                   compound  label.value
1  Nc1nc2c(cnn2CCN2CCN(c3c(F)cc(F)cc3F)CC2)c2nc(-c3ccco3)nn12            T
2  Nc1nc2c(cnn2CCN2CCN(c3ccc(OCCO)cc3)CC2)c2nc(-c3ccco3)nn12            F
3  Nc1nc2c(cnn2CCN2CCN(c3ccc(F)cc3)CC2)c2nc(-c3ccco3)nn12            F

Could you tell me if the measured inhibition in vivo at 1 mg/kg of Nc1nc2c(cnn2CCN2CCN(c3ccc(O)cc3)CC2)c2nc(-c3ccco3)nn12 reaches 40% or more?
F

What do you get for Nc1nc2c(cnn2CCN2CCN(c3ccc(F)c(F)c3F)CC2)c2nc(-c3ccco3)nn12 ?
T

What do you get for CCOc1ccc(N2CCN(CCn3ncc4c3nc(N)n3nc(-c5ccco5)nc43)CC2)cc1 ?
F

* * *

experiment: Clearance in rat at 1 mg/kg, iv; format: ADME, organism-based; design: dose 1 mg/kg, route intravenous; details: in vivo
recorded endpoint: clearance (L/h/kg)
One number for each entry, in L/h/kg.

# input compound: COCCOc1ccc(N2CCN(CCn3ncc4c3nc(N)n3nc(-c5ccco5)nc43)CC2)cc1.Cl ; wanted: its clearance
2.22

* * *

system: Rattus norvegicus; experiment: Inhibition of haloperidol-induced catalepsy in rat at 1 mg/kg, po after 1 hr; format: functional
Give measured inhibition in vivo at 1 mg/kg for each item. Keep answers brief.

# annotated cases, reported inhibition in vivo at 1 mg/kg shown
> print(dat)
                                   molecule  result
1  Nc1nc2c(cnn2CCN2CCN(c3ccccc3F)CC2)c2nc(-c3ccco3)nn12     20%
2  C[S+]([O-])COc1ccc(N2CCN(CCn3ncc4c3nc(N)n3nc(-c5ccco5)nc43)CC2)cc1 (stereo not drawn)     30%
3  Nc1nc2c(cnn2CCN2CCN(c3ccc(OCCOC4CC4)cc3)CC2)c2nc(-c3ccco3)nn12     59%
4  COC(C)COc1ccc(N2CCN(CCn3ncc4c3nc(N)n3nc(-c5ccco5)nc43)CC2)cc1 (racemic)     55%
5  Nc1nc2c(cnn2CCN2CCN(c3ccc(F)cc3F)CC2)c2nc(-c3ccco3)nn12     75%

Please report inhibition in vivo at 1 mg/kg for every entry that follows.
1. COCCOc1ccc(N2CCN(CCn3ncc4c3nc(N)n3nc(-c5ccco5)nc43)CC2)cc1
2. Nc1nc2c(cnn2CCN2CCN(c3ccccc3)CC2)c2nc(-c3ccco3)nn12
3. CC(=O)COc1ccc(N2CCN(CCn3ncc4c3nc(N)n3nc(-c5ccco5)nc43)CC2)cc1
4. Nc1nc2c(cnn2CCN2CCN(c3ccc(Cl)cc3)CC2)c2nc(-c3ccco3)nn12
5. COCCCOc1ccc(N2CCN(CCn3ncc4c3nc(N)n3nc(-c5ccco5)nc43)CC2)cc1
6. COCCOc1ccc(N2CCN(CCn3ncc4c3nc(N)n3nc(-c5ccco5)nc43)CC2)c(F)c1
7. N#Cc1ccc(N2CCN(CCn3ncc4c3nc(N)n3nc(-c5ccco5)nc43)CC2)cc1
8. Nc1nc2c(cnn2CCN2CCN(c3ccc(F)c(F)c3)CC2)c2nc(-c3ccco3)nn12

1: 77%; 2: 52%; 3: 15%; 4: 11%; 5: 8%; 6: 60%; 7: 0%; 8: 45%
